- System: Staphylococcus aureus
- assay info: Antibacterial activity against methicillin-resistant Staphylococcus aureus up to 30 uM after 24 hrs
- Assay type: functional, organism-based
The source made the active and inactive calls. The rule behind the calls is not given here.
measurement kind: Activity

chem smiles | measurement kind | data value
COc1cc(C)c(Oc2cc(C)cc(O)c2O)c(O)c1 | Activity | inactive
COc1cc(C)c(Oc2cc(C)cc(O)c2)c(O)c1 | Activity | inactive
COc1cc(C)c(Oc2cc(C)cc(OC)c2O)c(O)c1 | Activity | inactive
COc1cc(C2=CC(=O)[C@@](C)(c3ccc(O)c(OC)c3)C2=O)ccc1O | Activity | inactive

Each recorded value in this set is attributed to ChEMBL document CHEMBL2151035.
